# Assay details: in vitro
# Test settings: human, Caco-2, Percent Recovery, Mean (SD), B-A, 10 μg/mL
Where a name gives a salt, the structure may show the parent alone.
Observable: recovery
Write the numeric value and follow it with the unit.

Which recovery reading was recorded for the compound CCC(=O)C(C[C@H](C)N(C)C)(c1ccccc1)c1ccccc1 [esmethadone HCl] ?
74%

----------
# Assay details: in vitro
# Test settings: human, Caco-2, Percent Recovery, Rep. 1-3, B-A, 10 μg/mL
Structures can show the parent of a compound that is named as a salt.
Observable: recovery (%)
Answers are plain numbers, in %.

Which recovery reading was recorded for the compound CCC(=O)C(C[C@H](C)N(C)C)(c1ccccc1)c1ccccc1 [esmethadone HCl] ?
67
